Test: recombinant barcode read abundance after kanamycin selection (control-corrected) (log10(CPM+1)); higher = more efficient recombination; sequences stand for … in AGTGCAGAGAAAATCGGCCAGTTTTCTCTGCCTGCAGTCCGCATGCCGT…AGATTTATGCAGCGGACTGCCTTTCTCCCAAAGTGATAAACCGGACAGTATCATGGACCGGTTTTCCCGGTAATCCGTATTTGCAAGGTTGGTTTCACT; site = the 11-nt target;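 note: IS621 recombinase and bridge RNA in Escherichia coli cells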
Entries and their recombinant barcode read abundance (log10) values follow.
reported-endpoint: recombinant barcode read abundance (log10)

1. CCGAATTCTTGGGTTCTAACCTGTTGCTT (site CCGAATTCTAA)
0.113
2. CACACCGCTTGGGTTCTAACCTGTTGCCT (site CACACCGCTAG)
1.62
3. TAGAAGGCTTGGGTTCTAACCTGTTGCTT (site TAGAAGGCTAT)
0.28

All values here come from the supplement of paper PMC11208160.
